Quick reference: Kd of the listed items.
TESTED_SYSTEM: T1, His6-UEV (ubiquitin E2 variant domain of the human TSG101 protein) (human, UniProt Q99816 2-145)
T1 sequence: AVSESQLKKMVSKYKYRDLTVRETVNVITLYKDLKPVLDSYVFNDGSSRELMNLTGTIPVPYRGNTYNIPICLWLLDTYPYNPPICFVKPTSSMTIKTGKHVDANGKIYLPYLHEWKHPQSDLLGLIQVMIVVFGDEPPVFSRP
RUN_DESCRIPTION: fluorescence polarisation
Where no end group is shown, it is not given here.
Record the value in µM, omitting the unit from your answer.

GVAGGAACLHFFLSMPPSHVLDIC (FITC on the N-terminus; two non-overlapping lanthionine (thioether) rings) [N-terminal FITC-labeled peptide 3]
5.5

Let's switch to this binder now.
Exercise: Identify Kd associated with the binder GGPEPTAPPEE (also: FITC label, position not given here) [FITC labelled PTAP peptide (GGPEPTAPPEE)]
Solution: 16.6

Value source: paper PMC5866752
